Hey, just so you know, these numbers are from PubChem BioAssay.

# experiment: yeast growth modulation, basal conditions, primary screen, YJM789 clinical isolate, OD600, 24 h (AID 1089);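 further: growth of clinical yeast isolate S. cerevisiae YJM 789 seeded 1000 cells per well; test concentration not given here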
# experimental context: S. cerevisiae YJM789 growth, called active from +8 up or from −8 down
Active and inactive are the calls of the source.
Your response should consist of one outcome taken from 1 for active, 0 for inactive

-- ask Hi, do you know how O=C1OC[C@@H](c2ccccc2)N2CC(/C=C/c3ccccc3)=CC12 (stereo partly specified) came out in this test?
-- reply 0

-- ask Entry CC(C)(C)OC(=O)CC[C@]1(C(=O)NCCN2CCOCC2)N=C(c2ccc(OCCCO)cc2)O[C@H]1c1ccccc1N=[N+]=[N-] : call = ?
-- reply 0

-- ask Test call, this compound: CC=CC(O)C1C=CC2C(=O)N(c3ccccc3)C(=O)C2N1Nc1ccccc1 (stereo unspecified)
-- reply 0

-- ask Dear all, I need the recorded test outcome for O=C1NC(=O)C2C1C=CC(C(O)c1ccc(Br)cc1)N2Nc1ccccn1 (stereo unspecified) , thank you.
-- reply 0

-- ask Recorded call for C[C@@H]1ON(c2ccc(C(=O)OC(C)(C)C)cc2)[C@H](c2ccc(Br)cc2)[C@H]1C(=O)N1C(=O)OC[C@H]1Cc1ccccc1 ?
-- reply 0

-- ask Look up the recorded call for CC=CC(O)C1C=CC2C(=O)N(C)C(=O)C2N1N1CCCCC1 (stereo unspecified) in this test.
-- reply 0

-- ask Recorded test outcome, item CC(=O)N1Cc2ccccc2C[C@]2(N=C(c3ccc(OCCCO)cc3)O[C@@H]2c2ccccc2)C1=O
-- reply 0

-- ask Recorded test call requested for Cc1ccc(F)cc1S(=O)(=O)N[C@@H]1CCN(Cc2ccc(OC(C)C)cc2)C1
-- reply 0

-- ask // outcome(item) with item = CN1C(=O)C2C=CC(C(O)Cc3ccccc3)N(N(c3ccccc3)c3ccccc3)C2C1=O (stereo unspecified)
-- reply 0

-- ask How was O=C1O[C@@H](c2ccccc2)[C@@H](c2ccccc2)N2[C@@H](c3ccccc3OCCO)[C@]3(C(=O)Nc4ccc(C#CCCO)cc43)[C@@H](C(=O)Nc3nc4ccccc4s3)[C@H]12 classified in this test?
-- reply 0

-- ask Could you please tell me the result logged for C=C(COC)/C(=C/C[C@@H](OC(=O)c1ccncc1)c1cccc(OCCO)c1)c1cnc2ccccc2c1 in this assay?
-- reply 1

-- ask // outcome(item) with item = C=C(CCCC)C(=O)CC[C@@H](OC(=O)c1cccnc1)c1ccccc1OCCO
-- reply 0

-- ask Record lookup: outcome of this test for C=CCC(OC(C)=O)[C@@H]1[C@@H](N(Cc2ccc(-c3ccccc3)cc2)C(=O)c2cccc3ccccc23)c2cc(OCCCO)ccc2N1C(=O)Cc1ccc2ccccc2c1 (stereo partly specified) ?
-- reply 0

-- ask # fetch the recorded call for COc1ccc([Si](C)(C)[C@H]2[C@H](CCn3cc([C@H](O)c4ccccc4)nn3)O[C@@]3(C(=O)N(Cc4cccc(N5C(=O)c6cccc7cccc5c67)c4)c4ccccc43)[C@@H]2C)cc1 here
-- reply 0

-- ask In this assay, the call recorded for C=C(C(=O)CC[C@H](OC(=O)c1cccnc1)c1ccc(CO)o1)C(C)C was what?
-- reply 0

-- ask // return assay outcome for COc1cc2c(cc1OC)CN(C(=O)[C@H]1[C@@H]3C(=O)O[C@@H](c4ccccc4)[C@@H](c4ccccc4)N3[C@@H](c3ccc(OCCO)cc3)[C@]13C(=O)Nc1ccc(C#CCCO)cc13)CC2
-- reply 0

-- ask What did the test return for O=C(CS)NCCCCCCNC(=O)[C@H]1C[C@H]2C(=O)N[C@@H](Cc3ccccc3)C(=O)N2[C@H]1c1cccc(OCCO)c1 ?
-- reply 0

-- ask Assay outcome for C=C1C2CC3C(=C4C(CO[C@@H]4[C@H]4CCCN4S(=O)(=O)c4ccccc4[N+](=O)[O-])C4C(=O)N(C)C(=O)C34)CC2C(=O)N1C (stereo partly specified) : what was it?
-- reply 0

-- ask Name the outcome recorded for O=C(O)[C@H]1C[C@H]2C(=O)N3CCC[C@H]3C(=O)N2[C@H]1c1cccc(OCCO)c1 in the assay.
-- reply 0

-- ask What is the recorded call for this compound in the test? [N-]=[N+]=Nc1ccccc1C[C@@]1(C(=O)O)N=C(c2ccc(OCCCO)cc2)O[C@@H]1c1ccccc1
-- reply 0

-- ask What was the test verdict on C[C@]1(C(=O)O)c2ccccc2C(=O)N(Cc2ccccc2)[C@H]1c1ccc(CO)cc1 ?
-- reply 0

-- ask Name the outcome recorded for COC(=O)C1(Cc2ccccc2)C=C2C(=C(c3ccccc3)C(=O)C2C)CN1 (stereo unspecified) in the assay.
-- reply 0

-- ask How did this test come out for C=C[C@H](COC(C)=O)NS(=O)(=O)c1ccc(Br)cc1 ?
-- reply 0

-- ask Could you check what this test reported for C=C(C(=O)CC[C@H](OC(=O)c1cccnc1)c1cccc(OCCO)c1)C(C)C ?
-- reply 0

-- ask Fill in: this test's call for O=C1OCC=C[C@H]2OC34C=CCN(Cn5nnc6ccccc65)C(=O)[C@H]3N(CCCCCCO)C(=O)[C@@H]4[C@@H]12 (stereo partly specified) is ___
-- reply 0

-- ask Record lookup: outcome of this test for CC(C)N1C(=O)[C@@]2(c3ccc([N+](=O)[O-])cc3)CC(=O)N(C3CCCCC3)[C@@H]2c2ccc(CO)cc21 ?
-- reply 0

-- ask Answer briefly: the call reported for COC(=O)[C@@]1(Cc2ccccc2)[C@H]2c3cc(C(=O)N4CCCC4)[nH]c3C[C@H]2CN1C(=O)c1ccccc1 in this assay.
-- reply 0

-- ask How did this test come out for COc1ccc([Si](C)(C)[C@H]2[C@H](CCn3cc([C@H](O)c4ccccc4)nn3)O[C@@]3(C(=O)N(Cc4ccc(N5CCOC5=O)cc4)c4ccccc43)[C@@H]2C)cc1 ?
-- reply 0

-- ask Write down the call the test reported for this compound. Item: C=C(CCCC)C(=O)CC[C@@H](OC(=O)c1ccccc1-c1ccccc1C(=O)O)c1cccc(OCCO)c1
-- reply 0

-- ask What outcome does the record of this test show for Cc1c(NC(=O)/C(C#N)=C/C=C/c2ccccc2[N+](=O)[O-])c(=O)n(-c2ccccc2)n1C ?
-- reply 0

-- ask Dear colleague, could you share the recorded outcome for CC(C)(C)OC(=O)CC[C@]1(C(=O)N2CCOCC2)N=C(c2ccc(OCCCO)cc2)O[C@H]1c1ccccc1 when you have a moment?
-- reply 0
